assay: Phase I clinical trial: plasma pharmacokinetics; format: in vivo, human; conditions: human, plasma, oral, patient 24, With Food
Measured metric: Tmax (h)
# number only, unit h dropped from output

Task item: Name the recorded Tmax for CC(=O)c1cc2c(o1)C(=O)c1ccccc1C2=O [Compound 1] .
Reply: 10

###

test: Phase I clinical trial: plasma pharmacokinetics; type: in vivo, human; conditions: human, plasma, oral, patient 22, With Food
Measured metric: Tmax (h)
Unit h implied. Number only.

Task item: Item under review: CC(=O)c1cc2c(o1)C(=O)c1ccccc1C2=O . Reported Tmax?
Reply: 10
